Test system: Saccharomyces cerevisiae;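 also: PSI is a weighted mean of sequencing reads over stability bins, variants kept only with over 10 reads, mCherry proximal and sfGFP distal, peptide attached via GGGS linker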
METHOD NOTES: protein stability index of tFT-peptide fusion (C-terminal peptide) (PSI (0-1 scale)); higher = more stable (slower turnover)
CONDITION: genetic background: das1 deletion; temperature: 30 C
I'd be grateful if you could share measured protein stability index for these entries.
Numbers only.

Look over these answered cases.
- POLYMER SEQUENCE: "FMSAGVSWIFFV"
  QUANTITATIVE RESULT: 0.601
- POLYMER SEQUENCE: "FQLGLVFCVCSG"
  QUANTITATIVE RESULT: 0.258
- POLYMER SEQUENCE: "LFSPLKGILSVM"
  QUANTITATIVE RESULT: 0.51
- POLYMER SEQUENCE: "FLLYSILLAFLL"
  QUANTITATIVE RESULT: 0.415

For every item below, please supply its protein stability index.
1. RICCLFILLFCL
2. LYLFKVLFFRVF
3. VSIVLHSVPCGG
4. PFAFLSLVLLLP
5. PYSLYASSSSPL
6. HRNILSIIIKNL

Return:
1: 0.396; 2: 0.286; 3: 0.389; 4: 0.418; 5: 0.68; 6: 0.642

Report protein stability index for every entry below.
1. KLRMGRYIVRII
2. IIFCVRVVGGDL
3. GFTIFFFFFFFV
4. YCLSCLAKASLM
5. IFSFRWVLPFWL
6. VCVLRWAVAPCR
7. DVWEHLHKQHNM

Return:
0.569
0.371
0.193
0.524
0.6
0.245
0.699

For the 8 sequences below, give their protein stability index values.
1. RLINCIYVLMLP
2. FLFLFIFYFFCC
3. CWYRAVSIQYVL
4. VMYRGVRISWFL
5. INKRDARIHLLM
6. GGTGGAGSRGQI
7. FVCLCGFLQVLS
8. GGSIKRFVILVL

Return:
[0.412, 0.327, 0.367, 0.424, 0.623, 0.618, 0.395, 0.3]
